Test system: Trichomonas vaginalis
RUN DESCRIPTION: In vitro activity against T. vaginalis (IC50 determination)
Format: cell-based
CONDITION: 48 hr, 37° C., aerobic, Modified Diamonds Medium, 1×10^4 trichomonads cm^-3, read-out: IC50 48 hr
PROPERTY: IC50 (µg/mL)

INSERT INTO measurements (smiles_input, value) VALUES
  ('CC(C)(C)c1ccc(COc2ccc3c(c2)CCN=C3C=Cc2ccc(Cl)cc2Cl)cc1', 1.6);

a = CCCOc1cc2c(cc1OCCC)C(C=Cc1ccc(Cl)cc1Cl)=NCC2
b = C=CCCOc1ccc2c(c1)CCN=C2C=Cc1ccc(Cl)cc1Cl
// compare measured IC50 between a and b ; output the lower one Answer with the label corresponding to your selection. b

----------
Test system: Trichomonas vaginalis
RUN DESCRIPTION: In vitro activity against T. vaginalis (IC50 determination)
Type: cell-based
CONDITION: 48 hr, 37° C., aerobic, Modified Diamonds Medium, 1×10^4 trichomonads cm^-3, read-out: IC50 48 hr
PROPERTY: IC50 (µg/mL)

INSERT INTO measurements (compound, tested_system, property, value) VALUES
  ('COc1ccc(C=CC2=NCCc3cc(OCc4ccccc4)ccc32)c(OC)c1 [Example 56]', 'Trichomonas vaginalis', 'IC50', 8),
  ('CCCCCCOc1ccc2c(c1)CCN=C2C=Cc1ccc(C#N)cc1 [Example 75]', 'Trichomonas vaginalis', 'IC50', 0.8),
  ('CCCCOc1ccc2c(c1)CCN=C2/C=C/c1cccs1 [Example 105]', 'Trichomonas vaginalis', 'IC50', 6.7),
  ('C/C=C/C=C/C1=NCCc2cc(OCCCC)ccc21 [Example 128]', 'Trichomonas vaginalis', 'IC50', 1.6);

I = CC(C)(C)c1ccc(Oc2ccc3c(c2)CCN=C3C=Cc2ccc(Cl)cc2Cl)cc1 [Example 71]
II = CCCOc1ccc2c(c1)CCN=C2/C=C/C1CCCCC1 [Example 6]
Hi, I'm comparing I with II and wondering which one has the bigger number for IC50. Any idea? Answer with the label corresponding to your selection. I
(I: 1.4 µg/mL, II: 0.4 µg/mL)

P = CCCCOc1cc2c(cc1OCC)C(C=Cc1ccc(Cl)cc1Cl)=NCC2 [Example 160]
Q = CC(C)COc1ccc2c(c1)CCN=C2C=Cc1ccccc1Cl [Example 47]
R = CC(C)COc1ccc2c(c1)CCN=C2/C=C/C1CCCCC1 [Example 5]
Reorder the items by IC50, least to greatest. The labels, placed in the requested order, form the answer. P, Q, R
(P: 1 µg/mL, Q: 1.7 µg/mL, R: 6.4 µg/mL)

I = COc1ccc(OCc2ccccc2)c2c1C(C=Cc1ccccc1)=NCC2 [Example 174]
II = COc1ccc(OCc2ccccc2)c2c1C(C=Cc1ccc(C#N)cc1)=NCC2 [Example 175]
// compare measured IC50 between I and II ; output the lower one Answer with the label corresponding to your selection. II
(II: 1 µg/mL, I: 2 µg/mL)

1 = Clc1ccc(C=CC2=NCCc3c2ccc(OCc2ccccc2)c3OCc2ccccc2)cc1 [Example 172]
2 = O=[N+]([O-])c1ccc(C=CC2=NCCc3cc(Oc4ccc(Cl)cc4)ccc32)cc1 [Example 68]
Hi, I'm comparing 1 with 2 and wondering which one has the bigger number for IC50. Any idea? Answer with the label corresponding to your selection. 2
(2: 5.3 µg/mL, 1: 2 µg/mL)

----------
Test system: Trichomonas vaginalis
RUN DESCRIPTION: In vitro activity against T. vaginalis (IC50 determination)
Format: cell-based
CONDITION: 24 hr, 37° C., aerobic, Modified Diamonds Medium, 1×10^4 trichomonads cm^-3, read-out: IC50 24 hr
PROPERTY: IC50 (µg/mL)

INSERT INTO measurements (compound, value) VALUES
  ('CCCCOc1ccc2c(c1)CCN=C2/C=C/c1cccc2ccccc12 [Example 135]', 1.3),
  ('CC(C)(C)CCOc1ccc2c(c1)CCN=C2C=Cc1ccc(Cl)cc1Cl [Example 33]', 0.7);

1 = CCCCOc1ccc2c(c1)CCN=C2C=Cc1ccc(OC)cc1OC [Example 14]
2 = COc1ccc(OCc2ccccc2)c2c1C(C=Cc1ccccc1)=NCC2 [Example 174]
// compare measured IC50 between 1 and 2 ; output the lower one Answer with the label corresponding to your selection. 2
